Assay system hMC2 receptor (Homo sapiens, UniProt Q01718); read-out recorded as Ki.
quantity.measured: Ki

[
  {
    "compound": "CCOc1ncccc1-c1ccc(N2CC[C@@H](Oc3ccc(C(F)(F)F)cc3C#N)C[C@H]2CC)c(O[C@@H]2CCN(C)C2)n1 (mixture of isomers) [3-8]",
    "quantity.measured": "Ki",
    "measurement": "10 to 100 nM"
  },
  {
    "compound": "CCOc1ncccc1-c1ccc(N2CCN(C(=O)c3ccc(F)cc3Cl)C[C@H]2CC)c(OCCNC)n1 [1-29]",
    "quantity.measured": "Ki",
    "measurement": "< 10 nM"
  },
  {
    "compound": "CCOc1ncccc1-c1ccc(N2CCN(C(=O)c3ccc(F)cc3C(F)F)C[C@H]2CC)c(O[C@@H]2CCNC2)n1 [1-6]",
    "quantity.measured": "Ki",
    "measurement": "< 10 nM"
  }
]

====

# tgt: hMC2 receptor (Homo sapiens, UniProt Q01718)
# Sequence (Q01718 whole entry): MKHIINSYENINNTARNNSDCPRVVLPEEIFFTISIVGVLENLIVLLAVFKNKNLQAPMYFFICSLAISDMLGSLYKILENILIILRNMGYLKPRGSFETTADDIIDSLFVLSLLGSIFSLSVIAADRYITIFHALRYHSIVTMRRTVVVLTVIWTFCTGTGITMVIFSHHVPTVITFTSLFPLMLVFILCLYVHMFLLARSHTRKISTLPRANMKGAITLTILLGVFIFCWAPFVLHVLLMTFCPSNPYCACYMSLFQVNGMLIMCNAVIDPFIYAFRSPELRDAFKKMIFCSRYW
# Sequence (Q8TCY5 whole entry partner): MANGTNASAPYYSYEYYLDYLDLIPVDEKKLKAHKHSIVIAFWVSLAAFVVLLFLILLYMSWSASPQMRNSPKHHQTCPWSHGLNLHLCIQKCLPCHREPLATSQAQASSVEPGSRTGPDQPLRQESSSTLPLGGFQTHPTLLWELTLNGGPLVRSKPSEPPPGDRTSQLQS
pKi: −log10 of the molar value.

[
  {
    "compound": "CCOc1ncccc1-c1ccc(N2CC[C@@H](Oc3ccc(Cl)cc3C#N)C[C@H]2CC)c(C(=O)N[C@@H]2CCN(C)C2)n1 (single isomer, unassigned) [2-21]",
    "pKi": "> 8.00"
  },
  {
    "compound": "CCOc1ccc(C(=O)N2CCN(c3ccc(-c4cccnc4OCC)nc3O[C@@H](C)CN)[C@H](CC)C2)c(C(F)(F)F)n1 [1-22]",
    "pKi": "> 8.00"
  },
  {
    "compound": "CCOc1ncccc1-c1ccc(N2CCN(C(=O)c3ccc(F)cc3Cl)C[C@H]2CC)c(-c2nnc(CN)[nH]2)n1 [4-2]",
    "pKi": "7.00 to 8.00"
  }
]

This collection of values is drawn from patent US12479825B2.
